Assay: Blood levels in humans, oral administration of Test Compound for 7 days (toxicology studies)
Format: in vivo, human
Conditions: blood; human, oral 250 mg b.i.d. for 7 days
observation_type: Cmax at 7 days (ng/mL)
Report the value in ng/mL with no unit label.

Give a short answer stating reported Cmax at 7 days for NC(=O)OC[C@@H](O)c1ccccc1Cl [TC] .
8200

* * *

Experiment: Blood levels in humans, oral administration of Test Compound for 7 days (toxicology studies)
Type: in vivo, human
Conditions: blood; human, oral 500 mg b.i.d. for 7 days
observation_type: Cmax at 7 days
# answer = value followed by unit

Provide Cmax at 7 days value for the following compound: NC(=O)OC[C@@H](O)c1ccccc1Cl
17200 ng/mL

* * *

Test: Example 3 study 1: single oral dose pharmacokinetics in healthy men
Format: in vivo, human
Details: male, human, plasma; single oral dose 100-1500 mg, healthy men
observation_type: Tmax

Quickly give me recorded Tmax for NC(=O)OC[C@@H](O)c1ccccc1Cl
1.3 to 2.7 h

* * *

Assay: Example 3 study 2: repeated oral dose (q12h, 1 wk) pharmacokinetics in healthy men
Assay type: in vivo, human
Conditions: male, human, plasma, oral; repeated doses q12h, 100-750 mg
observation_type: Tmax at 1 wk

Answer with reported Tmax at 1 wk of NC(=O)OC[C@@H](O)c1ccccc1Cl
1.3 to 1.8 h

* * *

Test: Blood levels in rats, oral administration of Test Compound for 8 days (toxicology studies)
Assay type: in vivo
Details: blood; rat, oral 100 mg/kg/day for 8 days
observation_type: Cmax at 8 days
Numeric answer plus unit only.

Recall and state the measured Cmax at 8 days for NC(=O)OC[C@@H](O)c1ccccc1Cl .
20600 ng/mL

* * *

Experiment: Blood levels in rats, oral administration of Test Compound for 8 days (toxicology studies)
Type: in vivo
Settings: blood; rat, oral 30 mg/kg/day for 8 days
observation_type: Cmax at 8 days (ng/mL)
Reply numerically in ng/mL, unit not repeated.

Specify Cmax at 8 days for NC(=O)OC[C@@H](O)c1ccccc1Cl and stop.
9330

* * *

Test: Blood levels in humans, oral administration of Test Compound for 7 days (toxicology studies)
Type: in vivo, human
Details: blood; human, oral 750 mg b.i.d. for 7 days
observation_type: Cmax at 7 days (ng/mL)
Form entry: value (ng/mL) — number only.

Answer with the recorded Cmax at 7 days of NC(=O)OC[C@@H](O)c1ccccc1Cl only.
28200

* * *

Experiment: Blood levels in humans, oral administration of Test Compound for 7 days (toxicology studies)
Assay type: in vivo, human
Conditions: blood; human, oral 100 mg b.i.d. for 7 days
observation_type: Cmax at 7 days (ng/mL)
I only need the number, in ng/mL, no unit after it.

Quick one: give measured Cmax at 7 days for NC(=O)OC[C@@H](O)c1ccccc1Cl [TC]
3600
